- Subject of test: IL1RL1 with the extracellular risk allele (rs1041973 [C]) and the protective TIR signalling domain haplotype (rs10192157 [T]) (human) (UniProt Q01638)
Collected SEAP EC50 Risk:Prot (NF-κB SEAP reporter, transfected HEK293) values appear next to each entry.
Reported metric: SEAP EC50 Risk:Prot (NF-κB SEAP reporter, transfected HEK293) (pM)

INSERT INTO assay_data (binder, measured) VALUES
  ('IL33_(95–270) (ligand) AFGISGVQKYTRALHDSSITGISPITEYLASLSTYNDQSITFALEDESYEIYVEDLKKDEKKDKVLLSYYESQHPSNESGDGVDGKMLMVTLSPTKDFWLHANNKEHSVELHKCEKPLPDQAFFVLHNMHSNCVSFECKTDPGVFIGVKDNHLALIKVDSSENLCTENILFKLSET', 42.7),
  ('IL33_(99–270) (ligand) SGVQKYTRALHDSSITGISPITEYLASLSTYNDQSITFALEDESYEIYVEDLKKDEKKDKVLLSYYESQHPSNESGDGVDGKMLMVTLSPTKDFWLHANNKEHSVELHKCEKPLPDQAFFVLHNMHSNCVSFECKTDPGVFIGVKDNHLALIKVDSSENLCTENILFKLSET', 90.6),
  ('IL33_(109–270) (ligand) HDSSITGISPITEYLASLSTYNDQSITFALEDESYEIYVEDLKKDEKKDKVLLSYYESQHPSNESGDGVDGKMLMVTLSPTKDFWLHANNKEHSVELHKCEKPLPDQAFFVLHNMHSNCVSFECKTDPGVFIGVKDNHLALIKVDSSENLCTENILFKLSET', 71.2);

Measured values drawn from paper PMC11629065 for this set.
